# Test system: Escherichia coli TOP10
# test_name: shrunken log2 fold change of peptide-encoding DNA abundance (4.5 h post-induction vs induction); higher = less antimicrobial activity (less host growth inhibition)
# condition_set: time post-induction: 4.5 h; library: site-saturation at positions 5, 18, 19, 20
Outcome label depends on shrunken log2 fold change relative to 0.009: at/above gives y, below gives n.

RRIRQRPPRLPRPRPRPAYMPRP	n
RRIRFRPPRLPRPRPRPPEAPRP	y
RRIRCRPPRLPRPRPRPQPWPRP	y
RRIRWRPPRLPRPRPRPKSGPRP	n
RRIRTRPPRLPRPRPRPNPMPRP	n
RRIRYRPPRLPRPRPRPMMKPRP	n
RRIRLRPPRLPRPRPRPFHFPRP	n
RRIRVRPPRLPRPRPRPMWNPRP	n
RRIRSRPPRLPRPRPRPMQGPRP	n
RRIRQRPPRLPRPRPRPPHVPRP	y
RRIRERPPRLPRPRPRPFAIPRP	n
RRIRRRPPRLPRPRPRPSAEPRP	y
RRIRIRPPRLPRPRPRPHGSPRP	n
RRIRQRPPRLPRPRPRPAMSPRP	y
RRIRHRPPRLPRPRPRPRWDPRP	y
RRIRPRPPRLPRPRPRPPATPRP	y
RRIRERPPRLPRPRPRPYFIPRP	n
RRIRDRPPRLPRPRPRPLCKPRP	n
RRIRTRPPRLPRPRPRPHGWPRP	n
RRIRGRPPRLPRPRPRPNPDPRP	y
RRIRCRPPRLPRPRPRPMKEPRP	n
RRIRGRPPRLPRPRPRPCSEPRP	y
RRIRQRPPRLPRPRPRPLNRPRP	n
RRIRPRPPRLPRPRPRPYFCPRP	n
RRIRWRPPRLPRPRPRPCGRPRP	y
RRIRDRPPRLPRPRPRPEPLPRP	y
RRIRLRPPRLPRPRPRPHFCPRP	y
RRIRCRPPRLPRPRPRPIILPRP	n
RRIRERPPRLPRPRPRPGTAPRP	n
RRIRTRPPRLPRPRPRPKMLPRP	n
RRIRWRPPRLPRPRPRPQPHPRP	y
RRIRDRPPRLPRPRPRPFKHPRP	n
RRIRDRPPRLPRPRPRPQIWPRP	y
RRIRRRPPRLPRPRPRPVMTPRP	y
RRIRRRPPRLPRPRPRPKGMPRP	y
RRIRMRPPRLPRPRPRPNLCPRP	y
RRIRCRPPRLPRPRPRPHWAPRP	y
RRIRVRPPRLPRPRPRPQIHPRP	n
RRIRGRPPRLPRPRPRPNISPRP	y
RRIRPRPPRLPRPRPRPQKSPRP	y
RRIRLRPPRLPRPRPRPPGEPRP	y
RRIRQRPPRLPRPRPRPDFTPRP	n
RRIRCRPPRLPRPRPRPPILPRP	n
RRIRCRPPRLPRPRPRPMYYPRP	n
RRIRSRPPRLPRPRPRPNTYPRP	n
RRIRSRPPRLPRPRPRPYNLPRP	n
RRIRGRPPRLPRPRPRPAPKPRP	y
RRIRTRPPRLPRPRPRPCMAPRP	n
RRIRARPPRLPRPRPRPHDIPRP	n
RRIRERPPRLPRPRPRPRFFPRP	n
RRIRTRPPRLPRPRPRPTFTPRP	n
RRIRFRPPRLPRPRPRPCWHPRP	n
RRIRKRPPRLPRPRPRPCDHPRP	y
RRIRHRPPRLPRPRPRPTACPRP	y
RRIRERPPRLPRPRPRPTFEPRP	y
RRIRSRPPRLPRPRPRPVLMPRP	n
RRIRFRPPRLPRPRPRPVQNPRP	y
RRIRARPPRLPRPRPRPVDTPRP	y
RRIRDRPPRLPRPRPRPTENPRP	y
RRIRLRPPRLPRPRPRPANDPRP	y
RRIRLRPPRLPRPRPRPGNKPRP	n
RRIRRRPPRLPRPRPRPYWPPRP	n
RRIRWRPPRLPRPRPRPCRYPRP	n

====

# System: Escherichia coli TOP10
# test_name: shrunken log2 fold change of peptide-encoding DNA abundance (4.5 h post-induction vs induction); higher = less antimicrobial activity (less host growth inhibition)
# condition_set: time post-induction: 4.5 h; library: site-saturation at positions 5, 18, 19, 20
Outcome label depends on shrunken log2 fold change relative to 0.02: at/above gives Fulfilled, below gives Not fulfilled.

RRIRSRPPRLPRPRPRPMDAPRP	Not fulfilled
RRIRNRPPRLPRPRPRPGHDPRP	Fulfilled
RRIRRRPPRLPRPRPRPEKDPRP	Fulfilled
RRIRYRPPRLPRPRPRPLEAPRP	Not fulfilled
RRIRDRPPRLPRPRPRPQVQPRP	Not fulfilled
RRIRTRPPRLPRPRPRPHGNPRP	Not fulfilled
RRIRGRPPRLPRPRPRPMLPPRP	Fulfilled
RRIRPRPPRLPRPRPRPEQAPRP	Fulfilled
RRIRIRPPRLPRPRPRPERTPRP	Fulfilled
RRIRDRPPRLPRPRPRPPPYPRP	Not fulfilled
RRIRNRPPRLPRPRPRPVRLPRP	Fulfilled
RRIRDRPPRLPRPRPRPSGEPRP	Fulfilled
RRIRRRPPRLPRPRPRPECNPRP	Fulfilled
RRIRHRPPRLPRPRPRPEFTPRP	Not fulfilled
RRIRRRPPRLPRPRPRPETMPRP	Not fulfilled

====

# Tested on: Escherichia coli TOP10;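 also: peptides expressed intracellularly from a pBAD plasmid library in pooled LB shake-flask culture, induced with 0.3% L-arabinose, DNA abundance read by NGS, three biological replicates, DESeq2 with apeglm shrinkage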
# test_name: shrunken log2 fold change of peptide-encoding DNA abundance (4.5 h post-induction vs induction); higher = less antimicrobial activity (less host growth inhibition)
# condition_set: time post-induction: 4.5 h; library: site-saturation at positions 5, 18, 19, 20
assay_readout: shrunken log2 fold change

RRIRARPPRLPRPRPRPCILPRP	-1.06
RRIRIRPPRLPRPRPRPYEPPRP	-0.21
RRIRMRPPRLPRPRPRPENAPRP	0.0504
RRIRGRPPRLPRPRPRPNQYPRP	-0.166
RRIRSRPPRLPRPRPRPWRGPRP	0.59
RRIRPRPPRLPRPRPRPQYRPRP	-0.105
RRIRIRPPRLPRPRPRPVVDPRP	-0.105
RRIRNRPPRLPRPRPRPSGNPRP	-0.315
RRIRHRPPRLPRPRPRPASQPRP	0.045
RRIRARPPRLPRPRPRPKQQPRP	0.569
RRIRRRPPRLPRPRPRPLNVPRP	-0.0701
RRIRRRPPRLPRPRPRPAEPPRP	0.723
RRIRHRPPRLPRPRPRPIGSPRP	-0.0183
RRIRDRPPRLPRPRPRPKTFPRP	0.00972
RRIRSRPPRLPRPRPRPMVHPRP	-0.026
RRIRHRPPRLPRPRPRPFQRPRP	0.0038
RRIRTRPPRLPRPRPRPKILPRP	-0.0614
RRIRNRPPRLPRPRPRPAWMPRP	0.056
RRIRTRPPRLPRPRPRPWMEPRP	-0.326
RRIRIRPPRLPRPRPRPQTKPRP	0.13
RRIRFRPPRLPRPRPRPCYHPRP	-0.859
RRIRFRPPRLPRPRPRPNSMPRP	-1.01
RRIRRRPPRLPRPRPRPSCGPRP	0.0769
RRIRTRPPRLPRPRPRPCYEPRP	-0.549
RRIRSRPPRLPRPRPRPDHKPRP	-0.18
RRIRMRPPRLPRPRPRPQHRPRP	0.0767
RRIRSRPPRLPRPRPRPLHHPRP	-0.465
RRIRARPPRLPRPRPRPEKLPRP	0.758
RRIRTRPPRLPRPRPRPCYHPRP	-0.637
RRIRQRPPRLPRPRPRPSDWPRP	-0.131
RRIRHRPPRLPRPRPRPPLSPRP	-0.0738
RRIRWRPPRLPRPRPRPSAMPRP	0.252
RRIRPRPPRLPRPRPRPGVKPRP	-0.0608
RRIRQRPPRLPRPRPRPKCQPRP	0.0473
RRIRTRPPRLPRPRPRPARFPRP	0.128
RRIRYRPPRLPRPRPRPCWTPRP	-0.374
RRIRDRPPRLPRPRPRPSIDPRP	-0.145
RRIRRRPPRLPRPRPRPYVAPRP	-0.361
RRIRCRPPRLPRPRPRPIMFPRP	-0.388
RRIRYRPPRLPRPRPRPTYMPRP	-1
RRIRTRPPRLPRPRPRPLEPPRP	0.021
RRIRARPPRLPRPRPRPEYEPRP	0.262
RRIRARPPRLPRPRPRPADWPRP	0.984
RRIRIRPPRLPRPRPRPSHKPRP	-0.671
RRIRARPPRLPRPRPRPMSEPRP	0.337
RRIRERPPRLPRPRPRPVLPPRP	-0.0942
RRIRNRPPRLPRPRPRPFQPPRP	-0.0306
RRIRVRPPRLPRPRPRPFQYPRP	-0.453
RRIRLRPPRLPRPRPRPPSLPRP	0.0267
RRIRWRPPRLPRPRPRPLHCPRP	-0.444
RRIRTRPPRLPRPRPRPNKFPRP	-0.37
RRIRWRPPRLPRPRPRPKAMPRP	0.176
RRIRVRPPRLPRPRPRPPQEPRP	0.177
RRIRHRPPRLPRPRPRPHWSPRP	-0.205
RRIRWRPPRLPRPRPRPTIAPRP	0.367
RRIRFRPPRLPRPRPRPILHPRP	-0.75
RRIRSRPPRLPRPRPRPWVNPRP	-0.0336
RRIRKRPPRLPRPRPRPWMIPRP	0.0508
RRIRVRPPRLPRPRPRPRESPRP	0.259
RRIRYRPPRLPRPRPRPSGTPRP	-0.175
RRIRYRPPRLPRPRPRPYNEPRP	-1.3
RRIRTRPPRLPRPRPRPFVQPRP	-0.177
RRIRKRPPRLPRPRPRPAENPRP	0.0163

Taken from the supplement of paper PMC9112550.
